// provenance: ChEMBL document CHEMBL4831478

Experiment: Clearance in CD1 mouse at 0.3 mg/kg, iv administered as cassette dosing […]
Assay type: ADME, organism-based
Conditions: in vivo
Field: clearance. Provide a value for each of the compounds that follow.
Give bare numbers, in mL/min/kg.

[ask] Entry `Cc1ncsc1-c1ccc([C@@H](C)NC(=O)[C@@H]2C[C@@H](O)CN2C(=O)[C@H](NC(=O)COCCOCc2cn(CCOc3ccc(N(Cc4cccc(O)c4Cl)CC4(c5ccccc5F)CCCC4)cc3)nn2)C(C)(C)C)cc1` has what clearance?
[reply] 23

Read the next record carefully.
[ask] Entry `Cc1ncsc1-c1ccc([C@H](C)NC(=O)[C@@H]2C[C@@H](O)CN2C(=O)[C@H](NC(=O)COCc2cn(CCOc3ccc(N(Cc4cccc(O)c4Cl)CC4(c5ccccc5F)CCCC4)cc3)nn2)C(C)(C)C)cc1` has what clearance?
[reply] 20
